The reader will find reported pEC50 values listed item by item below.
Target: Ba/F3 stable cells (Homo sapiens, UniProt P00533, DUP768-770, cells depend on it)
Construct: EC50 Ba/F3-EGFR D770-N771insSVD; other: Ba/F3-EGFR D770-N771insSVD cells, 72 h, CCK-8
Sequence (P00533 with tags, fused parts or gaps DUP768-770): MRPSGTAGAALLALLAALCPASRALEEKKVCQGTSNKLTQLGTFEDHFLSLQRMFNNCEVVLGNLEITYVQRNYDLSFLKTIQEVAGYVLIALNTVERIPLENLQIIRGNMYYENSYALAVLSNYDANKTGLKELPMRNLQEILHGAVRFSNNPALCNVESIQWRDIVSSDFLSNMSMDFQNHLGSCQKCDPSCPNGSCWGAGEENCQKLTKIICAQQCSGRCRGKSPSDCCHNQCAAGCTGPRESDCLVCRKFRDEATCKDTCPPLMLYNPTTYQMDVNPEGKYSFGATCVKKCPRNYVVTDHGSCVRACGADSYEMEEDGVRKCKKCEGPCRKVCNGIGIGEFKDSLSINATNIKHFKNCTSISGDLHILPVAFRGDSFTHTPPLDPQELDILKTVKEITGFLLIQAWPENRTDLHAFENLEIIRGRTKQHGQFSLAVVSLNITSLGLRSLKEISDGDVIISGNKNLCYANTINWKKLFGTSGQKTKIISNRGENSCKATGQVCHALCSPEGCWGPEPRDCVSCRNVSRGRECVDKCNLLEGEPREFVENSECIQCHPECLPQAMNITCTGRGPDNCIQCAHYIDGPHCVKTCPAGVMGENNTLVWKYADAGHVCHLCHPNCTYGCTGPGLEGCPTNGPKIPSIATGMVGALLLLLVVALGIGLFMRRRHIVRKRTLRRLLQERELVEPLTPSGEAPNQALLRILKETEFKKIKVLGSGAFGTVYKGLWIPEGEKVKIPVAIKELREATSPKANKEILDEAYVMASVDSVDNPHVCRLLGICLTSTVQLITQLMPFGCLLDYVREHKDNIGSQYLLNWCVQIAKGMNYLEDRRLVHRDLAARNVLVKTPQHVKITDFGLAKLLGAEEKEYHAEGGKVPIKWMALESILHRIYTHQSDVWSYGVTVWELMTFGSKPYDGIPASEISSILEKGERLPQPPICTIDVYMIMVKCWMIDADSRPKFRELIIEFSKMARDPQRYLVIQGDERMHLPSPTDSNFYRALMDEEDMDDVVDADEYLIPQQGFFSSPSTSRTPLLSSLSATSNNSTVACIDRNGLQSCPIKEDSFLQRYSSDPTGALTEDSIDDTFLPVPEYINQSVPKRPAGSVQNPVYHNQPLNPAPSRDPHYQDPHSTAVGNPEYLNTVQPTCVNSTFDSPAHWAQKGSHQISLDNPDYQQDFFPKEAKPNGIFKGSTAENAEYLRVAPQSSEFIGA
Experiment: EC50 assay: Ba/F3 stable cell proliferation (CCK-8, 72 h)
Details: Ba/F3-EGFR D770-N771insSVD cells
Procedure: 4,000 Ba/F3 stable cells/90 μL/well were plated onto 96-well cell culture plate (Grenier, Cat.No. 655180) and incubated at 37° C. with a humidified atmosphere of 5% CO2 for 2 h. Then the cells were treated with 10 μL compounds at serial titration. […] 10 μL the cell proliferation reagent CCK-8 (Dojindo, Cat.No. CK04 1000T) was added into each well and incubated the plate at 37° C. for 4 hours, the GD value was measured by SPECTRAmax plus (Molecular Devices) at 450 nm. […]
pEC50: −log10 of the molar value.

C=CC(=O)N[C@H]1C[C@@H](Oc2cc3c(Nc4ccc(Cl)c(Cl)c4F)ncnc3cc2OCC)C1 [Compound 105]; ≥ 6.70

Short answer for C=CC(=O)N1CCC(Oc2cc3c(NCc4cccc(Br)c4)ncnc3cc2OC)CC1 [Compound 120] : pEC50 was ≥ 6.70

Short answer for C=CC(=O)N[C@H]1C[C@@H](Oc2cc3c(Nc4cccc5ccccc45)ncnc3cc2OC)C1 [Compound 83] : pEC50 was 6.00 to 6.70

Short answer for C=CC(=O)NC1CC(Oc2cc3c(Nc4ccc(Cl)cc4F)ncnc3cc2OC)C1 (stereo not shown) [Compound 78] : pEC50 was < 6.00
